Would you kindly list TCF/Wnt firefly luciferase reporter signal for each of these compounds?
System: SW480
assay.overview: TCF/Wnt firefly luciferase reporter signal relative to plate median (fraction of plate median); higher = higher Wnt reporter signal
experimental.conditions: 5 µM; treatment time 24 h; reporter: 7TFP
Answer with a number only.

Incoming: Quick one: TCF/Wnt firefly luciferase reporter signal of COc1ccc2c(c1)[C@@]1(C)CCC(=O)C[C@H]1CC2 [5beta-12-METHOXY-4,4-BISNOR-8,11,13-PODOCARPATRIEN-3-ONE] ?
Outgoing: 1.05

Incoming: Repeat for the following compound: "CCN(CC)CCOCCOC(=O)C1(c2ccccc2)CCCC1"
Outgoing: 1.04

Incoming: Please give the result for "CC(=O)OCC(COC(C)=O)OC(C)=O" too.
Outgoing: 1

Incoming: Lookup "CCC(=O)NCC[C@@H]1CCc2ccc3c(c21)CCO3"
Outgoing: 0.91

Incoming: Next up: "Cc1cc(/C=C/c2ccc3cc(N(C)C)ccc3[n+]2C)c(C)n1-c1ccccc1"
Outgoing: 0.588

Incoming: Likewise for "O=C1CC[C@]23/C=C/C(=O)NCCCCNCCCNC(=O)/C=C/c4ccc(c2c4)O[C@@H]3C1" ?
Outgoing: 1.04

Incoming: COc1c2ccoc2nc2c(OC)c(OCC(O)C(C)(C)O)ccc12 (stereo not given) ?
Outgoing: 1.02

Incoming: Then this compound: "COC(=O)[C@H](Cc1ccccc1)NC(=O)[C@@H](N)CC(=O)O"
Outgoing: 0.985

Incoming: Same thing, different compound: COc1c(N2CCNC(C)C2)c(F)cc2c(=O)c(C(=O)O)cn(C3CC3)c12 (stereo not given)
Outgoing: 0.906

Incoming: Note, next up: CC(CCc1ccccc1)NCC(O)c1ccc(O)c(C(N)=O)c1 (stereo not given)
Outgoing: 0.939
